# Target Under Test: Pyruvate kinase PKM (Homo sapiens, UniProt P14618)
# Sequence (P14618 whole entry): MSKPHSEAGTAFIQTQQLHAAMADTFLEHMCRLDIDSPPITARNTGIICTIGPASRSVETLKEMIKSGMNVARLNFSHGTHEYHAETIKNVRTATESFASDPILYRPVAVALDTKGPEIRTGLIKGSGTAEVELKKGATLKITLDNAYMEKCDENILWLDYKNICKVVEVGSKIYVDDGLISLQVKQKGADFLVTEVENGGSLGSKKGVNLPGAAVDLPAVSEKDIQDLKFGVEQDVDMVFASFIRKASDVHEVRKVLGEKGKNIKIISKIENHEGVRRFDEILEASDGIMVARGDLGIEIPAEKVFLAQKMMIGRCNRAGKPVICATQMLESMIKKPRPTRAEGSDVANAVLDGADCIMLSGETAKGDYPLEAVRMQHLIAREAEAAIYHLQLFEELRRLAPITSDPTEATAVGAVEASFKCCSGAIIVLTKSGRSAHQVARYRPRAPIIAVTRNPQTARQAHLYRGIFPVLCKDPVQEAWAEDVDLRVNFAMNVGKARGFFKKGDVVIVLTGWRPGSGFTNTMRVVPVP
# Experiment Summary: Inhibition of recombinant human N-terminal His-tagged PKM1 expressed in Escherichia coli preincubated for 25 mins in presence of PEP/FBP followed by ADP/NADH addition measured after 25 mins by PK-LDH assay
Reported Property: pIC50
# log scale: pIC50 equals minus log10 of the concentration in mol/L

Query :: Recorded pIC50 of O=C1C(CSC(=S)N2CCCCC2)=C(CSC(=S)N2CCCCC2)C(=O)c2ccccc21 , please.
Result :: 5.29

###

# Tested on: HeLa
# Experiment Summary: Cytotoxicity against human HeLa cells after 48 hrs by MTS assay
# Format: functional, cell-based
Reported Property: IC50

Query :: Recorded IC50 of O=C1C(CSC(=S)N2CCCCC2)=C(CSC(=S)N2CCCCC2)C(=O)c2ccccc21 , please.
Result :: 124 nM
